test system: Leishmania donovani promastigotes; assay: Iron content analysis by atomic absorption spectroscopy; type: cell-based; conditions: 24 hours; 4x IC50 (amphotericin B IC50)
Measured intracellular iron levels in promastigotes, listed per entry for reference.
Measurement Type: intracellular iron levels in promastigotes

{"columns": ["Molecule", "Result"],
 "data": [
  ["C[C@@H]1[C@H](O)[C@@H](C)/C=C/C=C/C=C/C=C/C=C/C=C/C=C/[C@H](O[C@@H]2O[C@H](C)[C@@H](O)[C@H](N)[C@@H]2O)C[C@@H]2O[C@](O)(C[C@@H](O)C[C@@H](O)[C@H](O)CC[C@@H](O)C[C@@H](O)CC(=O)O[C@H]1C)C[C@H](O)[C@H]2C(=O)O [Amphotericin B, reference compound]", "0.15 mg/L"],
  ["O=c1cc(-c2ccc(O)cc2)oc2cc(O)cc(O)c12", "0.1 mg/L"],
  ["O=C(/C=C/c1ccc(O)c(O)c1)O[C@H](Cc1ccc(O)c(O)c1)C(=O)O", "0.30 mg/L"],
  ["CC(=O)N(O)CCCCCNC(=O)CCC(=O)N(O)CCCCCNC(=O)CCC(=O)N(O)CCCCCN [Deferoxamine, deferoxamine, reference compound]", "0.36 mg/L"]
]}

Sourced from paper PMC6405172
